# Test system: HSF1 pathway (HSP72 expression) in SK-OV-3 cells
# Test: Cell-based ELISA (Cellisa) assay: HSP72 induction by 17-AAG in SK-OV-3 cells
# Test Conditions: Homo sapiens, compound 1 h before 17-AAG (250 nM), then 18 h, HSP72 antibody, europium counts normalised to protein, 50% inhibitory concentration, read-out: SKOV3 Cellisa
Below: a set of entries, each annotated with reported pIC50.
The scale used: pIC50 is minus the common logarithm of the concentration in molar units.

# Compound, Endpoint Result
records = [
    ("Cc1ccc2cc(C(=O)Nc3cc(NC(=O)c4ccc5c(c4)OCCC5)ccc3F)ccc2n1", 5.57),
    ("Cc1ccc2cc(C(=O)Nc3cc(NC(=O)c4ccc5c(c4)OCCCO5)ccc3C)ccc2n1", 6.17),
    ("O=C(Nc1ccc(Cl)c(NC(=O)c2ccc3nc(CN4CCC4)ccc3c2)c1)c1ccc2c(c1)OCC2", 5.74),
    ("Cc1ccc2cc(C(=O)Nc3cc(NC(=O)c4ccc5c(c4)OC(C)CO5)ccc3C)ccc2n1 (racemic)", 5.39),
]

Challenge: Report pIC50 from HSF1 pathway (HSP72 expression) in SK-OV-3 cells testing of `Cc1ccc2cc(C(=O)Nc3cc(NC(=O)c4ccc5c(c4)OCO5)ccc3C)ccc2n1`
Response given: 6.89

Challenge: Answer briefly: pIC50 recorded on HSF1 pathway (HSP72 expression) in SK-OV-3 cells for `CCN1CCN(Cc2ccc3cc(C(=O)Nc4cc(NC(=O)c5ccc6c(c5)OCC6)ccc4C)ccc3n2)CC1`
Response given: 6.92

Challenge: Fill: pIC50 (HSF1 pathway (HSP72 expression) in SK-OV-3 cells) for this compound `CCN1CCN(Cc2ccc3cc(C(=O)Nc4cc(NC(=O)c5ccc6c(c5)OCCC6)ccc4F)ccc3n2)CC1`
Response given: 6.00

Challenge: State the measured pIC50 (HSF1 pathway (HSP72 expression) in SK-OV-3 cells) of Cc1ccc2cc(C(=O)Nc3cc(NC(=O)c4ccc5c(c4)CC(C)O5)ccc3C)ccc2n1 (racemic)
Response given: 5.54
